- Test system: MCF7
- EXPERIMENT_DESCRIPTION: Antiproliferative activity against human MCF7 cells
- Type: functional, cell-based

>  <MOLECULE>
COc1cccc(-c2cc(C(=O)Nc3cc4ccc5c(c4oc3=O)NC(=O)C(CCNC34C[C@H]6C[C@@H](C3)C[C@@H](C4)C6)O5)ccc2OC)c1 (some centres not stated)

>  <MODIFIER_SIGN>
=

>  <IC50 [nM]>
1090

$$$$
>  <MOLECULE>
COc1cccc(-c2cc(C(=O)Nc3cc4ccc5c(c4oc3=O)NC(=O)C(CCCNC3CCCCC3)O5)ccc2OC)c1 (configuration not stated)

>  <MODIFIER_SIGN>
=

>  <IC50 [nM]>
350

$$$$
>  <MOLECULE>
COc1cccc(-c2cc(C(=O)Nc3cc4ccc5c(c4oc3=O)NC(=O)C(CCCN3CCN(C)CC3)O5)ccc2OC)c1 (configuration not stated)

>  <MODIFIER_SIGN>
=

>  <IC50 [nM]>
2430

$$$$
>  <MOLECULE>
COc1cccc(-c2cc(C(=O)Nc3cc4ccc5c(c4oc3=O)NC(=O)C(Cc3ccc(C)cc3)O5)ccc2OC)c1 (configuration not stated)

>  <MODIFIER_SIGN>
>

>  <IC50 [nM]>
50000

$$$$
>  <MOLECULE>
COc1cccc(-c2cc(C(=O)Nc3cc4ccc5c(c4oc3=O)NC(=O)C(CCNC3CCCCC3)O5)ccc2OC)c1 (configuration not stated)

>  <MODIFIER_SIGN>
=

>  <IC50 [nM]>
1160

$$$$
>  <MOLECULE>
COc1ccc(CC2Oc3ccc4cc(NC(=O)c5ccc(OC)c(-c6cccc(OC)c6)c5)c(=O)oc4c3NC2=O)cc1 (configuration not stated)

>  <MODIFIER_SIGN>
=

>  <IC50 [nM]>
6120

$$$$
>  <MOLECULE>
COc1cccc(-c2cc(C(=O)Nc3cc4ccc5c(c4oc3=O)NC(=O)C(CCN3CCOCC3)O5)ccc2OC)c1 (configuration not stated)

>  <MODIFIER_SIGN>
=

>  <IC50 [nM]>
7440

$$$$
